- assayed_system: Toll-like receptor 4/Ly96 (Mus musculus, UniProt Q9JHF9+Q9QUK6)
- Sequence (Q9QUK6 whole entry): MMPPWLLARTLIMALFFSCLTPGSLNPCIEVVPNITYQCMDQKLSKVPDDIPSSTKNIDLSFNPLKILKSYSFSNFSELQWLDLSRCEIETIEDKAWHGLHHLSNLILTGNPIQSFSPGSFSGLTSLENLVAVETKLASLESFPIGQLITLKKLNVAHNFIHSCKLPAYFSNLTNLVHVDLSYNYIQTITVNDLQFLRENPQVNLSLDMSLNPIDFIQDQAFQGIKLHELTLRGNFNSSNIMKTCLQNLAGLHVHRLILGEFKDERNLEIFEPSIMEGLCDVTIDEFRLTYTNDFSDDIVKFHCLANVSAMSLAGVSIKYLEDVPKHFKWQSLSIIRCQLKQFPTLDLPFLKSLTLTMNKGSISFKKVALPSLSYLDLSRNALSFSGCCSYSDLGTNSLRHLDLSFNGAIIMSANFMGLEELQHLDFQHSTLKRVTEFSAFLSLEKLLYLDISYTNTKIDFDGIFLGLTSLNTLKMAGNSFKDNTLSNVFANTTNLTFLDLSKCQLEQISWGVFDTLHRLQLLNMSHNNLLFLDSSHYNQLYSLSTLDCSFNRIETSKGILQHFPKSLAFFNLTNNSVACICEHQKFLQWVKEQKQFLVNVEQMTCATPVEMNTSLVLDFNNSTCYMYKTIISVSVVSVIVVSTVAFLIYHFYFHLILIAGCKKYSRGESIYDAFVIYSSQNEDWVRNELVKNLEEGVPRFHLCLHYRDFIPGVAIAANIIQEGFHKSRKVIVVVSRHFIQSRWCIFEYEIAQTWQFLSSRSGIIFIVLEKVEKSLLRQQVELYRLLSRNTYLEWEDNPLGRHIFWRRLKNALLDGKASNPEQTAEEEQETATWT
- Sequence (Q9JHF9 whole entry): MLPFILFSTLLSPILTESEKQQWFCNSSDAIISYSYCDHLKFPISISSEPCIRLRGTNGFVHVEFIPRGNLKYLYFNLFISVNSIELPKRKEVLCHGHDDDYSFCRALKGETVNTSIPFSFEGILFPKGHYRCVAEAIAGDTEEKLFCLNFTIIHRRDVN
- test_summary: Inhibition of MD2-TLR4 protein-protein interaction in ICR mouse peritoneal macrophages assessed as reduction in LPS-induced IL-6 production preincubated for 2 hrs followed by LPS-stimulation and measured after 22 hrs by ELISA
measurement_type: IC50
State the result as a value with its unit after it.

record_smiles | recorded_result
O=C(Nc1ccc2[nH]nc(-c3ccc4c(ccn4CCO)c3)c2c1)c1c(Cl)cccc1Cl | 0.73 µM

**Query** Report measured IC50; entry is O=[N+]([O-])c1ccc2[nH]nc(-c3ccc4c(ccn4CCO)c3)c2c1
**Result** 0.84 µM

**Query** Report measured IC50; entry is O=C(CCCl)Nc1ccc2[nH]nc(-c3ccc4c(ccn4CCO)c3)c2c1
**Result** 4.57 µM

---

- assayed_system: Toll-like receptor 4 (Homo sapiens)
- Sequence (O00206 whole entry): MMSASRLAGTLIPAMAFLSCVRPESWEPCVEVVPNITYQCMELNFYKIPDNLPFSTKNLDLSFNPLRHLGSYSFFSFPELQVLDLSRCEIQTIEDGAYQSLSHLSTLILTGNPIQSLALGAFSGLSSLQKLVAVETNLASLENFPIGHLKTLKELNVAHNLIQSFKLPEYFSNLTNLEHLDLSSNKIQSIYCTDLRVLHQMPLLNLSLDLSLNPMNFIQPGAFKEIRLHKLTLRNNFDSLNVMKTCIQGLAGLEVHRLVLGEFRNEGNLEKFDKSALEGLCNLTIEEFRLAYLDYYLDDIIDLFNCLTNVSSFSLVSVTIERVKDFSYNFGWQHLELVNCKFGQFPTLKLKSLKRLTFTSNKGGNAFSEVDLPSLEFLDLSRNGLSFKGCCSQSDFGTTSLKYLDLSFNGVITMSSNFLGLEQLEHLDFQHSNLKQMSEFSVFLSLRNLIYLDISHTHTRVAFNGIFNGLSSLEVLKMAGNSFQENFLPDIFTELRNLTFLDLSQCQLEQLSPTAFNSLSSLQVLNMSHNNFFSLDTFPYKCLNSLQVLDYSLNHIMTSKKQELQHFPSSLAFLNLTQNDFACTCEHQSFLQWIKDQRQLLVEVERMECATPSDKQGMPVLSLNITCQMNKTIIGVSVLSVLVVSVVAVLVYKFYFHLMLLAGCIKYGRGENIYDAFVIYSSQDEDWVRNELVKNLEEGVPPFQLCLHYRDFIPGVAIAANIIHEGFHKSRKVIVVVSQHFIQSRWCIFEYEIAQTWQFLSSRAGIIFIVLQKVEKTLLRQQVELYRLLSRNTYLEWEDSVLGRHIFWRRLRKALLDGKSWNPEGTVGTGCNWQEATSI
- test_summary: Binding affinity to recombinant human C-terminal 10His-tagged TLR4 (Glu24 to Lys631 residues) expressed in mouse NS0 cells by surface plasmon resonance analysis
measurement_type: Kd (µM)
Provide the reading as a plain figure in µM.

**Query** Report measured Kd; entry is O=C(Nc1ccc2[nH]nc(-c3ccc4[nH]ccc4c3)c2c1)c1c(Cl)cccc1Cl
**Result** 146
